Attribution: paper PMC7729925

Measured Target: NTCP (Homo sapiens)
Construct: expressed in transfected cells
Assay Summary: [3H]preS1 (myr-preS1_2-48 lipopeptide) binding inhibition in NTCP-HEK293 cells
Condition Description: 95% confidence interval; inhibition of 5 nM [3H]preS1 binding; NTCP-HEK293 cells; 10 min, 37 °C; read-out: IC50 ([3H]preS1 binding)
pIC50: −log10 of the molar value.
Some molecules, each annotated with its measured pIC50.

Below, 4 molecules whose answers are already recorded.
{"columns": ["Molecule", "Observed Value"],
 "data": [
  ["C=C(C)[C@@H]1CC[C@]2(COC3CCCCO3)CC[C@]3(C)[C@H](CC[C@@H]4[C@@]5(C)CC[C@H](O)C(C)(C)[C@@H]5CC[C@]43C)[C@@H]12 (some centres unmarked) [Compound 13, 28-(Tetrahydro-2H-pyran-2-yl)betulin]", "4.71 to 5.03"],
  ["C=C(C)[C@@H]1CC[C@]2(COC(=O)/C=C/c3ccccc3)CC[C@]3(C)[C@H](CC[C@@H]4[C@@]5(C)CC[C@H](O)C(C)(C)[C@@H]5CC[C@]43C)[C@@H]12", "4.50 to 4.96"],
  ["C=C(C)[C@@H]1CC[C@]2(COC(=O)CC(C)(C)CC(=O)O)CC[C@]3(C)[C@H](CC[C@@H]4[C@@]5(C)CC[C@H](O)C(C)(C)[C@@H]5CC[C@]43C)[C@@H]12", "5.15 to 5.61"],
  ["C=C(C)C1CCC2(C=NO)CCC3(C)C(CCC4C5(C)CCC(O)C(C)(C)C5CCC43C)C12 (centres unmarked)", "4.74 to 5.18"]
]}

Proceed to the following item.
## Input Recall the recorded pIC50 for C=C(C)[C@@H]1CC[C@]2(COC(=O)CCC(=O)O)CC[C@]3(C)[C@H](CC[C@@H]4[C@@]5(C)CC[C@H](O)C(C)(C)[C@@H]5CC[C@]43C)[C@@H]12 with NTCP (Homo sapiens) and state it.
## Output 5.39 to 5.79

---

Measured Target: NTCP (Homo sapiens, UniProt Q14973)
Construct: expressed in transfected cells
Assay Summary: [3H]preS1 (myr-preS1_2-48 lipopeptide) binding inhibition in NTCP-HEK293 cells
Condition Description: 95% confidence interval; inhibition of 5 nM [3H]preS1 binding; NTCP-HEK293 cells; 10 min, 37 °C; read-out: IC50 ([3H]preS1 binding)
pIC50: −log10 of the molar value.
Readout: pIC50

{"columns": ["Compound", "pIC50"],
 "data": [
  ["C=C(C)C1CCC2(CO)CCC3(C)C(CCC4C5(C)CCC(OC(=O)C=Cc6ccc(O)c(O)c6)C(C)(C)C5CCC43C)C12 (stereo not drawn)", "5.00 to 5.47"]
]}

## Input Requested field: pIC50. Item: C=C(C)[C@@H]1CC[C@]2(C(=O)O)CC[C@]3(C)[C@H](CC[C@@H]4[C@@]5(C)CC[C@H](OC(C)=O)C(C)(C)[C@@H]5CC[C@]43C)[C@@H]12
## Output 5.27 to 5.74

## Input Now try C=C(C)[C@@H]1CC[C@]2(COC(=O)CCc3ccccc3)CC[C@]3(C)[C@H](CC[C@@H]4[C@@]5(C)CC[C@H](OC(=O)CCc6ccccc6)C(C)(C)[C@@H]5CC[C@]43C)[C@@H]12 [Compound 16, 3,28-Di-O-(dihydrocinnamoyl)betulin] .
## Output 3.64 to 4.61

---

Measured Target: NTCP (Homo sapiens)
Construct: expressed in transfected cells
Assay Summary: [3H]TC transport (bile acid uptake) inhibition in NTCP-HEK293 cells
Type: cell-based
Condition Description: 95% confidence interval; inhibition of 1 µM [3H]TC uptake; NTCP-HEK293 cells; 10 min, 37 °C; read-out: IC50 ([3H]TC uptake)
pIC50: −log10 of the molar value.
Readout: pIC50

{"columns": ["Molecule", "Measured Target", "pIC50"],
 "data": [
  ["C=C(CO)C1CCC2(COC(C)=O)CCC3(C)C(CCC4C5(C)CCC(OC(C)=O)C(C)(C)C5CCC43C)C12 (centres unmarked) [Compound 25, 3,28-Di-O-acetyl-29-hydroxybetulin]", "NTCP (Homo sapiens)", "< 3.00"]
]}

## Input Requested field: pIC50. Item: C=C(C)[C@@H]1CC[C@]2(C=O)CC[C@]3(C)[C@H](CC[C@@H]4[C@@]5(C)CCC(=O)C(C)(C)[C@@H]5CC[C@]43C)[C@@H]12 [Compound 18, Betulonaldehyde]
## Output 3.76 to 4.05

## Input Now try CC(=O)OC[C@]12CC[C@@H](C3(C)CO3)[C@@H]1[C@H]1CC[C@@H]3[C@@]4(C)CC[C@H](OC(C)=O)C(C)(C)[C@@H]4CC[C@@]3(C)[C@]1(C)CC2 (some centres unmarked) [Compound 26, 3,28-Di-O-acetyl-20,30-epoxybetulin] .
## Output 3.05 to 3.48

## Input Now try CC(=O)OC[C@]12CCC(C(C)C)=C1[C@H]1CC[C@@H]3[C@@]4(C)CC[C@H](OC(C)=O)C(C)(C)[C@@H]4CC[C@@]3(C)[C@]1(C)CC2 [Compound 28] .
## Output < 3.00

## Input Now try C=C(C)[C@@H]1CC[C@]2(COC(=O)CBr)CC[C@]3(C)[C@H](CC[C@@H]4[C@@]5(C)CC[C@H](O)C(C)(C)[C@@H]5CC[C@]43C)[C@@H]12 [Compound 7, 28-O-(Bromoacetyl)betulin] .
## Output 3.90 to 4.20

---

Measured Target: NTCP (Homo sapiens)
Construct: expressed in transfected cells
Assay Summary: [3H]preS1 (myr-preS1_2-48 lipopeptide) binding inhibition in NTCP-HEK293 cells
Condition Description: 95% confidence interval; inhibition of 5 nM [3H]preS1 binding; NTCP-HEK293 cells; 10 min, 37 °C; read-out: IC50 ([3H]preS1 binding)
Method: The major goal of the present study was to analyze in parallel the effect of inhibitors on both, bile acid transport via NTCP and myr-preS1_2-48 lipopeptide binding to NTCP in a cell culture system. […] Half maximal inhibitory concentrations (IC50) were calculated by nonlinear regression analysis using the equation log(inhibitor) versus response (GraphPad Prism). […] Transport rates and [^3H]preS1 binding were determined in counts per minute (cpm). […]
Some molecules, each annotated with its measured IC50.

Below, 3 molecules whose answers are already recorded.
{"columns": ["Molecule", "Measured Target", "IC50"],
 "data": [
  ["CC(=O)OC[C@]12CCC(C(C)C)=C1[C@H]1CC[C@@H]3[C@@]4(C)CC[C@H](OC(C)=O)C(C)(C)[C@@H]4CC[C@@]3(C)[C@]1(C)CC2 [Compound 28]", "NTCP (Homo sapiens)", "30 to 133 µM"],
  ["C=C(CO)C1CCC2(COC(C)=O)CCC3(C)C(CCC4C5(C)CCC(OC(C)=O)C(C)(C)C5CCC43C)C12 (stereo not drawn) [Compound 25, 3,28-Di-O-acetyl-29-hydroxybetulin]", "NTCP (Homo sapiens)", "5.29 to 13 µM"],
  ["C=C(C)[C@@H]1CC[C@]2(COC(=O)c3cccnc3)CC[C@]3(C)[C@H](CC[C@@H]4[C@@]5(C)CC[C@H](O)C(C)(C)[C@@H]5CC[C@]43C)[C@@H]12 [Compound 14, 28-O-Nicotinoylbetulin]", "NTCP (Homo sapiens)", "36.5 to 109 µM"]
]}

## Input Requested field: IC50. Item: C=C(C)[C@@H]1CC[C@]2(C(=O)O)CC[C@]3(C)[C@H](CC[C@@H]4[C@@]5(C)CC[C@H](OC(=O)CC(C)(C)CC(=O)O)C(C)(C)[C@@H]5CC[C@]43C)[C@@H]12 [Compound 11]
## Output 3 to 5.21 µM

## Input Now try C=C(C)[C@@H]1CC[C@]2(COC3CCCCO3)CC[C@]3(C)[C@H](CC[C@@H]4[C@@]5(C)CC[C@H](OC(C)=O)C(C)(C)[C@@H]5CC[C@]43C)[C@@H]12 (stereo partly drawn) [Compound 23] .
## Output 11 to 114 µM

## Input Now try C=C(C)[C@@H]1CC[C@]2(COC(=O)CCC(=O)O)CC[C@]3(C)[C@H](CC[C@@H]4[C@@]5(C)CC[C@H](OC(=O)CCC(=O)O)C(C)(C)[C@@H]5CC[C@]43C)[C@@H]12 [Compound 9, 3,28-Di-O-succinoylbetulin] .
## Output 2.94 to 10.1 µM

---

Measured Target: NTCP (Homo sapiens)
Construct: expressed in transfected cells
Sequence (Q14973 1-349): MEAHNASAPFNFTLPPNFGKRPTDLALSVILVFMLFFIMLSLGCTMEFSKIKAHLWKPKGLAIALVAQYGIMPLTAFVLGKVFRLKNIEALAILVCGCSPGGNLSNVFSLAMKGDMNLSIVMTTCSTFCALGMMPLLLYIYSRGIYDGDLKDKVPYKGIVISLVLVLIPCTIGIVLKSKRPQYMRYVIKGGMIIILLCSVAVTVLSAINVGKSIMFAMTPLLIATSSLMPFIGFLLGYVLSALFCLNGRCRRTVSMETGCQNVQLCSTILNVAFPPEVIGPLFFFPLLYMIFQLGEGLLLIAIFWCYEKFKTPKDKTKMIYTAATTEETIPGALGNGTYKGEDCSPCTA
Assay Summary: [3H]preS1 (myr-preS1_2-48 lipopeptide) binding inhibition in NTCP-HEK293 cells
Condition Description: IC50 [3H]preS1 binding inhibition, mean IC50; 5 nM [3H]preS1; NTCP-HEK293 cells; standard pH 7.4
pIC50: −log10 of the molar value.
Readout: pIC50

## Input Requested field: pIC50. Item: C=C(C)[C@@H]1CC[C@]2(C)CC[C@]3(C)[C@H](CC[C@@H]4[C@@]5(C)CCC(=O)C(C)(C)[C@@H]5CC[C@]43C)[C@@H]12
## Output 4.30 to 4.96
